For each entry below, report its Kd value.
Biological target: T1, IgFold domain of human lamin A/C from amino acid 411 to amino acid 566 (human, UniProt P02545 411-566)
T1 construct: human lamin A/C, residues 411-566 including the IgFold domain; Cloned into a pGEX vector; also called LamIgF; lamin A/C Igfold domain; source: E. coli BL21 DE3 Star, purified (glutathione beads, thrombin cleavage, gel filtration); 15N labelled for NMR
T1 sequence (looked up): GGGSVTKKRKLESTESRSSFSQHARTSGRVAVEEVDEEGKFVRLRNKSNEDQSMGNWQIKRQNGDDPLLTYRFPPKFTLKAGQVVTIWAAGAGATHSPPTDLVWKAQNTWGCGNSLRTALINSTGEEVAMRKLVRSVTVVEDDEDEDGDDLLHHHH
Assay: ITC; VP-ITC, 15°C; BAF or pBAF dimers at 20 μM in the cell titrated with LamIgF at 100 μM or LEM at 150 μM in the syringe; 50 mM HEPES pH 7.4, 150 mM NaCl; in duplicate
Settings: both partners purified
One number for each entry, in µM.

binder	units	Kd
Di-phosphorylated BAF (BAF phosphorylated by VRK1 on Thr3 and Ser4) (natural protein, human, UniProt O75531 1-89, looked up, phosphothreonine at 3, phosphoserine at 4, human barrier-to-autointegration factor (BANF1), an 89-aa protein; residue 1 is a glycine left by the TEV site instead of the native methionine; all four cysteines mutated into alanine; phosphorylated on Thr3 and Ser4; Same construct as m1, then phosphorylated; also called pBAF; not shown: His tag, N-terminal, cleaved) GTTSQKHRDFVAEPMGEKPVGSLAGIGEVLGKKLEERGFDKAYVVLGQFLVLKKDEDLFREWLKDTAGANAKQSRDAFGALREWADAFL	µM	4.9

Pending binder:
Can you look up the measured Kd of Barrier-to-autointegration factor (BAF construct with the four cysteines replaced by alanines) (natural protein, human, UniProt O75531 1-89, looked up, human barrier-to-autointegration factor (BANF1), an 89-aa protein; residue 1 is a glycine left by the TEV site instead of the native methionine; all four cysteines mutated into alanine; also called BAF WT; non-phosphorylated BAF; not shown: His tag, N-terminal, cleaved) GTTSQKHRDFVAEPMGEKPVGSLAGIGEVLGKKLEERGFDKAYVVLGQFLVLKKDEDLFREWLKDTAGANAKQSRDAFGALREWADAFL for me?
4.5
